Hello, the source for this data is patent US5482858A, in case you need it.

Tested on: 26-10 BABS (sFv), single chain biosynthetic antibody binding site VH-(Gly4-Ser)3-VL mimicking murine anti-digoxin monoclonal 26-10
TEST DESCRIPTION: Specificity determination by radioimmunoassay (inhibition of 125I-digoxin binding), 26-10 BABS
CONDITION LABEL: normalizing glycoside Digoxin
Exercise: state measured normalized concentration of inhibitor giving 50% inhibition of 125I-digoxin binding for each of the compounds provided.

Ask: May I ask what normalized concentration of inhibitor giving 50% inhibition of 125I-digoxin binding has been recorded for C[C@]12CC[C@H](O)C[C@H]1CC[C@@H]1[C@@H]2C[C@@H](O)[C@]2(C)[C@@H](C3=CC(=O)OC3)CC[C@]12O [Digoxigenin] ?
Result: 7.3

Okay, here is my list. What is normalized concentration of inhibitor giving 50% inhibition of 125I-digoxin binding for each of these?
1. CC(=O)OC1CCC2(C=O)C3CCC4(C)C(C5=CC(=O)OC5)CCC4(O)C3CCC2(O)C1 (stereo not drawn) [Acetyl Strophanthidin]
2. C[C@@H]1O[C@@H](O[C@H]2C[C@@H](O)[C@]3(CO)[C@H]4[C@H](O)C[C@]5(C)[C@@H](C6=CC(=O)OC6)CC[C@]5(O)[C@@H]4CC[C@]3(O)C2)[C@H](O)[C@H](O)[C@H]1O [Ouabain]
3. C[C@]12CC[C@H](O)C[C@H]1CC[C@@H]1[C@@H]2CC[C@]2(C)[C@@H](C3=CC(=O)OC3)CC[C@]12O [Digitoxigenin]
4. C[C@H]1O[C@@H](O[C@H]2[C@@H](O)C[C@H](O[C@H]3[C@@H](O)C[C@H](O[C@H]4CC[C@@]5(C)[C@H](CC[C@@H]6[C@@H]5CC[C@]5(C)[C@@H](C7=CC(=O)OC7)CC[C@]65O)C4)O[C@@H]3C)O[C@@H]2C)C[C@H](O)[C@@H]1O [Digitoxin]
5. C[C@H]1O[C@@H](O[C@H]2[C@@H](O)C[C@H](O[C@H]3[C@@H](O)C[C@H](O[C@H]4CC[C@@]5(C)[C@H](CC[C@@H]6[C@@H]5CC[C@]5(C)[C@@H](C7=CC(=O)OC7)[C@@H](O)C[C@]65O)C4)O[C@@H]3C)O[C@@H]2C)C[C@H](O)[C@@H]1O [Gitoxin]

Result:
5.9
150
2.6
2.0
62
